# percent inhibition at 1 μM listing for each entry below
Test system: PDE4 enzyme
assay_procedure: Inhibition of phosphodiesterase enzymes (PDE4), [3H]cAMP hydrolysis assay
Format: biochemical
test_parameters: PDE4 inhibition at 1 μM compound
Where a name gives a salt, the structure may show the parent alone.
The response must be a number in % at 1 μM with no trailing unit.

These solved cases illustrate the format of a correct answer.
# compound, display_unit, data_value
measured = [
    ("COc1ccc(C(=O)Nc2c(Cl)cncc2Cl)c2c3c(n(CC4CC4)c12)CCN(C(=O)OC(C)(C)C)C3", "% at 1 μM", 48.79),
    ("COc1ccc(C(=O)Nc2c(Cl)cncc2Cl)c2c3c(n(C)c12)CCN(C)C3", "% at 1 μM", 12.90),
    ("COc1ccc(C(=O)Nc2c(Cl)cncc2Cl)c2c3c(n(C)c12)C(=O)N(C)CC3", "% at 1 μM", 34.54),
    ("COc1ccc(C(=O)Nc2ccncc2)c2c3c(n(C)c12)CCN(C(=O)OC(C)(C)C)C3", "% at 1 μM", 33.67),
    ("COc1ccc(C(=O)Nc2c(Cl)cncc2Cl)c2c3c(n(C)c12)CCN(C(=O)OC(C)(C)C)C3", "% at 1 μM", 27.74),
]

Okay, next one:
Lab note: need percent inhibition at 1 μM with PDE4 enzyme for entry COc1ccc(C(=O)Nc2c(Cl)cncc2Cl)c2c3c(sc12)CNCC3 [Example 08, hydrochloride] , please look it up.
31.75

* * *

measured_target: PDE4 enzyme
assay_procedure: Inhibition of phosphodiesterase enzymes (PDE4), [3H]cAMP hydrolysis assay
Type: biochemical
test_parameters: PDE4 inhibition, 1 μM cAMP, 34° C.
test_readout: pIC50
Note on units: pIC50 is unitless, being -log10 of a concentration expressed in mol/L.

Recorded pIC50, per entry:
# compound, measured_target, pIC50
measured = [
    ("COc1ccc(C(=O)Nc2c(Cl)cncc2Cl)c2c1oc1cnncc12", "PDE4 enzyme", 8.86),
    ("COc1ccc(C(=O)Nc2c(Cl)cncc2Cl)c2c1oc1ccncc12", "PDE4 enzyme", 9.14),
]

Which pIC50 value belongs to `O=C(Nc1c(Cl)cncc1Cl)c1ccc(OC(F)F)c2oc3cnncc3c12` ?
8.47

Form field: reported pIC50 of `COc1ccc(C(=O)Nc2c(Cl)cncc2Cl)c2c3c(sc12)CN(C(=O)OC(C)(C)C)CC3`
6.38

Name the reported pIC50 value associated with the compound `O=C(Nc1c(Cl)cncc1Cl)c1ccc(OC(F)F)c2oc3ccncc3c12`
9.60

Dear colleague, I am looking for the recorded pIC50 of the following compound: `CCOC(=O)N1CCc2c(oc3c(OC)ccc(C(=O)Nc4c(Cl)cncc4Cl)c23)C1`
8.12

Reported pIC50, compound `O=C(Nc1c(Cl)c[n+]([O-])cc1Cl)c1ccc(OC(F)F)c2oc3cnncc3c12` : ____
8.40

* * *

measured_target: PDE4 enzyme
assay_procedure: Inhibition of phosphodiesterase enzymes (PDE4), [3H]cAMP hydrolysis assay
Format: biochemical
test_parameters: PDE4 inhibition, 1 μM cAMP, 34° C.
Counter-ions that a name gives are not always drawn.
pIC50 values for the compounds below.
// pIC50: -log10(molar conc.)

Below are worked cases with known answers.
# compound, pIC50
records = [
    ("COc1ccc(C(=O)Nc2c(Cl)cncc2Cl)c2c3c(n(Cc4ccccc4)c12)CCN(C(=O)OC(C)(C)C)C3", 6.75),
    ("O=C(Nc1c(Cl)c[n+]([O-])cc1Cl)c1ccc(OC(F)F)c2oc3ccncc3c12 [Example 26]", 8.57),
    ("COc1ccc(C(=O)Nc2c(Cl)cncc2Cl)c2c3c(oc12)CNCC3 [Example 20, hydrochloride]", 7.76),
]

Notebook: pull reported pIC50 for PDE4 enzyme, entry O=C(Nc1c(Cl)c[n+]([O-])cc1Cl)c1ccc(OC(F)F)c2oc3ccncc3c12 [Example 27]
8.62

What reported pIC50 corresponds to `COc1ccc(C(=O)Nc2c(Cl)cncc2Cl)c2c3c(n(Cc4ccccc4)c12)CCN(C)C3` on PDE4 enzyme?
5.64

* * *

measured_target: PDE4 enzyme
assay_procedure: Inhibition of phosphodiesterase enzymes (PDE4), [3H]cAMP hydrolysis assay
Format: biochemical
test_parameters: PDE4 inhibition, 1 μM cAMP, 34° C.
Counter-ions that a name gives are not always drawn.
test_readout: pIC50
Quick note: pIC50 values are minus log10 of concentrations in mol/L.

Known pIC50 results, listed for orientation:
# molecule, measured_target, test_readout, data_value
data = [
    ("COc1ccc(C(=O)Nc2c(Cl)cncc2Cl)c2c3c(n(Cc4ccccc4)c12)CCNC3 [Example 14, hydrochloride]", "PDE4 enzyme", "pIC50", 5.45),
    ("COc1ccc(C(=O)Nc2c(Cl)cncc2Cl)c2c3c(oc12)CCNC3 [Example 21, hydrochloride]", "PDE4 enzyme", "pIC50", 7.69),
]

Read the next record carefully.
Given COc1ccc(C(=O)Nc2c(Cl)cncc2Cl)c2c1oc1cncnc12 [Example 02] , state its recorded pIC50.
6.31
